tested on: PfIESI-1 RRM domain (Plasmodium falciparum ortholog aa 875-1232, GST fusion); assay: RBNS R-value (6-mer enrichment in protein-bound RNA vs input library) (ratio); higher = stronger binding preference; the methods of the paper give 50 / 100 / 500 nM protein instead; details: protein concentration: 1000 nM
The full ranking holds about 4,100 sequences; the median of “RBNS R-value (6-mer enrichment in protein-bound RNA vs input library)” is about 0.99, and the highest 2% start at about 1.4. What follows is part of a selection rich in the highest values, with near analogues and random picks from the rest.
PROPERTY_MEASURED: RBNS R-value

# SEQ, OBS_VALUE
measured = [
    ("UGGAUU", 0.974),
    ("GGUGAC", 1.01),
    ("CAGAUA", 0.99),
    ("UUGAGU", 1.02),
    ("GUUCCU", 1.01),
    ("CACCUA", 1.01),
    ("UGCGAC", 1),
    ("CAUUGC", 0.976),
    ("CCAAAU", 0.995),
]
